Collected pEC50 values appear next to each entry.
# ASSAYED TARGET: feline CaSR (Felis catus)
# Sequence (A0ABI7YY68 entry or part of it): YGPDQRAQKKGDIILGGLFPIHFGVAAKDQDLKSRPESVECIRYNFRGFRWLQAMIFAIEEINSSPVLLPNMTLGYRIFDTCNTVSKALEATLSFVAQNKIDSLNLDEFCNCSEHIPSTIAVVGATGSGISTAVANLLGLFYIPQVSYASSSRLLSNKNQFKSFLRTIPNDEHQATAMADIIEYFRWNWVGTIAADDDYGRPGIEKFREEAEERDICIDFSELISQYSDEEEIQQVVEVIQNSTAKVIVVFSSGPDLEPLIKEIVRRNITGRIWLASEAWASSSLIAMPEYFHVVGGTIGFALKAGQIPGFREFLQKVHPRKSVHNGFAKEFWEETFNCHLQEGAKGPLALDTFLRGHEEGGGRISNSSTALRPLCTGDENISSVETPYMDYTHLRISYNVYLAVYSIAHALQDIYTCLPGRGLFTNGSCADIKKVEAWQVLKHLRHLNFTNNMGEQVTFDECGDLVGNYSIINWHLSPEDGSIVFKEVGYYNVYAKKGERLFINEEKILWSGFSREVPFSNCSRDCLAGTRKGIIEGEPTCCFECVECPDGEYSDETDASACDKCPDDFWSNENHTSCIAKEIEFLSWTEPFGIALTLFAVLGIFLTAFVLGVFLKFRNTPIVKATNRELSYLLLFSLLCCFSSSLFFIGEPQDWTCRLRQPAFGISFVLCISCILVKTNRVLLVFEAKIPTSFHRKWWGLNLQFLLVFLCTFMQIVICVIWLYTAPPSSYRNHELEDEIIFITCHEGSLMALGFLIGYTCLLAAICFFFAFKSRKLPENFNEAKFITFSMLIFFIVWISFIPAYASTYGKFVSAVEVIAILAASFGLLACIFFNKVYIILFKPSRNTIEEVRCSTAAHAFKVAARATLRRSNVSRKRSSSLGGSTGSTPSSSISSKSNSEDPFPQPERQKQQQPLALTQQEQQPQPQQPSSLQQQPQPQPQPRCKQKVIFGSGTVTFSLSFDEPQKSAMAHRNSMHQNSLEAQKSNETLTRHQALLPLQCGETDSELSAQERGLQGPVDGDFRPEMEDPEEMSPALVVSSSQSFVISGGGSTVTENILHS
# ASSAY PROCEDURE: HEK T-Rex/natClytin-fCaSR luminescence assay, activation of feline CaSR
# Assay type: cell-based
# Procedure: The cells used for the assays were HEK293 derived HEK T-Rex/natClytin-fCaSR cells. For the assays, the cells were plated on […] culture plates with a clear bottom for reading the luminescence in the wells. […] 20 ul of each ligand at a specified concentration was injected on the cells and the response of the cells was measured for 90 sec at 1.94 sec intervals. The resulting curves were analyzed and reduced using the software provided by Molecular Devices, SoftMax Pro (version 5.4.1). […]
Where a SMILES comes first, the peptide text is derived from it. [ ]: non-standard residue; d: D form. pY = N[CH](Cc1ccc(OP(=O)(O)O)cc1)C(=O)O; pS = N[CH](COP(=O)(O)O)C(=O)O
Formally, pEC50 is defined as -log10 of the concentration c, with c in mol/L.

Example results:
| COMPOUND | pEC50 |
| --- | --- |
| NC(CC(=O)O)C(=O)NC(CCC(=O)O)C(=O)NC(CCC(=O)O)C(=O)O (stereo not drawn) [Asp-Glu-Glu] (H-Asp-Glu-Glu-OH; configuration not given here) | 2.59 |
| CC(C)C(NC(=O)C(N)COP(=O)(O)O)C(=O)NC(CCC(=O)O)C(=O)O (stereo not drawn) [pSer-Val-Glu] (H-[pS]-Val-Glu-OH; configuration not given here) | 2.52 |
| NC(CO)C(=O)NC(CCC(=O)O)C(=O)NC(CO)C(=O)O (stereo not drawn) [Ser-Glu-Ser] (H-Ser-Glu-Ser-OH; configuration not given here) | 2.45 |

# context switch: different compound, same pEC50
Please give the documented pEC50 of NC(Cc1ccc(OP(=O)(O)O)cc1)C(=O)NC(CCC(=O)O)C(=O)NC(Cc1ccc(OP(=O)(O)O)cc1)C(=O)O (stereo not drawn) [pTyr-Glu-pTyr] (H-[pY]-Glu-[pY]-OH; configuration not given here)
2.65
